# System: Malme-3M
# Experiment notes: NCI tumour cell line growth inhibition, 48 h
The source made the active and inactive calls. Cut-off read from the data, not from the text of the source: active = GI50 up to about 1.1 µM and inactive = higher.
Test readout: GI50

Please review the entries below; each comes with its answer.
- Molecule: "O=Cc1[nH]c(=O)[nH]c(=O)c1CCl"
  Test readout: "GI50"
  Reading: "> 100 µM (inactive)"
- Molecule: "[N-]=[N+]=NC1C(O)C(CO)OC1n1ccc(N)nc1=O (stereo unspecified)"
  Test readout: "GI50"
  Reading: "93.8 µM (inactive)"
- Molecule: "CN1C(=O)CN=C(c2ccccc2F)c2cc(N=C=S)ccc21"
  Test readout: "GI50"
  Reading: "> 100 µM (inactive)"
- Molecule: "COC1OC(=O)[C@H]2O[N+]([O-])=C(C)[C@@H]12 (stereo partly specified)"
  Test readout: "GI50"
  Reading: "> 100 µM (inactive)"
- Molecule: "CCC12C=CCN3CCC4(c5cc(C(c6ccc(OC)cc6)C6Cc7ccccc7N6)c(OC)cc5N(C)C4C(O)(C(=O)OC)C1O)C32 (stereo unspecified)"
  Test readout: "GI50"
  Reading: "36.6 µM (inactive)"
- Molecule: "NC(=O)c1ccc(C(=O)Nc2ccc([As](=O)(O)O)cc2)cc1"
  Test readout: "GI50"
  Reading: "> 100 µM (inactive)"
- Molecule: "Cn1c2ccccc2n2c3ncccc3/c(=N/CCCC(=O)O)c(C#N)c12"
  Test readout: "GI50"
  Reading: "> 100 µM (inactive)"
- Molecule: "CN1C(=O)C(O)CC1c1cccc(C(F)(F)F)c1 (stereo unspecified)"
  Test readout: "GI50"
  Reading: "> 100 µM (inactive)"
- Molecule: "COc1ccc(-c2cn3c(n2)sc2cc(C)ccc23)cc1"
  Test readout: "GI50"
  Reading: "37.8 µM (inactive)"
- Molecule: "COc1cc(S(=O)(=O)Nc2nc(-c3ccc(N4C(=O)/C(=C\\c5cccs5)N=C4c4ccccc4)cc3)cs2)ccc1Cl"
  Test readout: "GI50"
  Reading: "23.6 µM (inactive)"

[in] What GI50 value was documented for this molecule, N#Cc1nc(Nc2ccc(Cl)cc2)sc1N ?
[out] 11.6 µM (inactive)

[in] What GI50 value was documented for this molecule, O=C(CC(=O)N1N=C(c2ccccc2)C(/N=N/c2ccc(S(=O)(=O)CCOS(=O)(=O)O)cc2)C1=O)Nc1ccc(Cl)cc1 (stereo unspecified) ?
[out] > 100 µM (inactive)

[in] What GI50 value was documented for this molecule, C=CCN1C(=O)/C(=C/c2cccs2)N=C1SC/C=C/C ?
[out] 34 µM (inactive)

[in] What GI50 value was documented for this molecule, CCN(CCCl)c1ccc(NC(=O)c2cc(C(=O)NCCN(C)C)cc(C(=O)Nc3ccc(N(CC)CCCl)cc3)c2)cc1 ?
[out] 13.6 µM (inactive)

[in] What GI50 value was documented for this molecule, CC1(C)CCC(=O)NC1CC(=O)CC1NC(=O)CCC1(C)C (stereo unspecified) ?
[out] > 100 µM (inactive)

[in] What GI50 value was documented for this molecule, O=c1[nH]nc(-c2ccccc2)n1/N=C/c1ccc([N+](=O)[O-])o1 ?
[out] 4.26 µM (inactive)

---

# Tested on: SR
# Experiment notes: NCI tumour cell line growth inhibition, 48 h
The source made the active and inactive calls. No stated cut-off is given here; in the data, active = GI50 up to about 1.1 µM and inactive = higher.
Hello, when you answer, please use one of the following outcomes: y for active, n for inactive

Below, 3 compounds whose answers are already recorded.
- Compound: "S=C1c2cc(Cl)ccc2N=C(NC2CCCC2)C2CSCN12 (stereo unspecified)"
  Qualitative label: "n"
- Compound: "O=C(CC(=O)N1N=C(c2ccccc2)C(/N=N/c2ccc(S(=O)(=O)CCOS(=O)(=O)O)cc2)C1=O)Nc1ccc(Cl)cc1 (stereo unspecified)"
  Qualitative label: "n"
- Compound: "N#CC1=C(N)N(c2ccccc2)C(c2ccccc2)C1(C#N)C#N (stereo unspecified)"
  Qualitative label: "n"

Turning to the following compound.
[in] Status in this test for O=C(/C=C/c1ccc(O)c(O)c1)c1cc(O)cc(O)c1 ?
[out] n

Measured values drawn from ChEMBL document CHEMBL1201862 for this set.
